# target-of-assay: BACE-2 (Homo sapiens)
# Construct: Recombinant BACE-2 (extracellular domain, expressed in baculovirus and purified using standard methods); made in house
# Sequence (Q9Y5Z0 63-473 limits assumed): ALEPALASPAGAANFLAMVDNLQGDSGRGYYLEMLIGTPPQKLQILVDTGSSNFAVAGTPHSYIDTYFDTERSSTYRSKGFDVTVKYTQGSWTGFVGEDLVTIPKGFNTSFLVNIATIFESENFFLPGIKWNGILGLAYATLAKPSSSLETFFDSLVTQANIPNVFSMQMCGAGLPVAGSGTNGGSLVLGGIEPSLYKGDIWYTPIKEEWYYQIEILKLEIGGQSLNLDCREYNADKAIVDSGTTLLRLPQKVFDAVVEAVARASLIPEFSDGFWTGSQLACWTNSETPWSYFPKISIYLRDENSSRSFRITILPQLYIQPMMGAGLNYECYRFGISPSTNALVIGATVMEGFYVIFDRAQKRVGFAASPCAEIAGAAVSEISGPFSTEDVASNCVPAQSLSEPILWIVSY
# procedure-details: assay for inhibition of BACE-2
# Type: biochemical
Structures can show the parent of a compound that is named as a salt.
Labelling field: enter t if recorded IC50 is less than 100 nM. Enter f if it equals or exceeds that cut-off.

[
  {
    "compound": "COCCOc1cnc(C(=O)Nc2cccc(C3(C(F)F)COCC(N)=N3)c2)cn1 (centres unmarked)",
    "class-name": "f"
  },
  {
    "compound": "Cc1nc(C(=O)Nc2ccc(F)c([C@]3(C(F)F)COCC(N)=N3)c2)c(C)o1",
    "class-name": "t"
  },
  {
    "compound": "NC1=NC(CF)(c2cccc(NC(=O)c3ccc(Br)cn3)n2)COC1 (centres unmarked)",
    "class-name": "f"
  },
  {
    "compound": "C#CCOc1cnc(C(=O)Nc2ccc(F)c([C@]3(C(F)F)COCC(N)=N3)c2)cn1 [Example 167, hydrochloride]",
    "class-name": "f"
  },
  {
    "compound": "CC1(c2cccc(NC(=O)c3ccc(C#N)cn3)c2)COCC(N)=N1 (centres unmarked) [Example 14, hydrochloride]",
    "class-name": "f"
  },
  {
    "compound": "Cc1cc(C#N)cnc1C(=O)Nc1ccc(F)c([C@]2(C(F)F)COCC(N)=N2)c1",
    "class-name": "t"
  }
]

Here's an entry: NC(=S)c1ccc(C(=O)Nc2cccc(C3(CF)COCC(N)=N3)n2)nc1 (centres unmarked) . Is its IC50 below 100 nM?
f

Record N#Cc1cnc(C(=O)Nc2ccc(F)c([C@]3(C(F)F)COCC(N)=N3)c2)c(Cl)c1 : is its IC50 strictly below 100 nM?
t
